These data points were gathered from patent US20250034275A1.

- TEST_SYSTEM: T1, human Trop-2 (on the surface of human cell lines) (human, UniProt P09758 27-323)
- T1 construct: Endogenous Trop-2 on NCI-H322, Capan-1, PC-3, HUVEC, OVCAR-3, HCC38 and HCC1806 cells; also called TACSTD2
- T1 sequence: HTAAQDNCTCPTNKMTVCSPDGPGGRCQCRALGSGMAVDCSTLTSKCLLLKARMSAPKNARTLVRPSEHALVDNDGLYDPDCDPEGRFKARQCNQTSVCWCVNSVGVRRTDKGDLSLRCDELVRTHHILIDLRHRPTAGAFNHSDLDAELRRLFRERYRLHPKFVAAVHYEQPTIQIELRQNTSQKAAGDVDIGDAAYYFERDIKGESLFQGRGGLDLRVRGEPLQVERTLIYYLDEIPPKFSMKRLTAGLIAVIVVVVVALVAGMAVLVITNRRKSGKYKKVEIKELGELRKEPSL
- METHOD_NOTES: flow cytometry, OVCAR-3 cells
MEASURED_METRIC: EC50

Exam item: Look at this binder and give its reported EC50. hz-Ab21-1.2 (antibody, human IgG1, kappa, V domains shown, Humanized antibody) VH: EVQLVESGGGLVKPGGSLRLSCAASGFTLRNYGVHWVRQAPGKGLEWVGVIWSSGTTDYNAAFISRFTISKDNSKNTLYLQMNSLKTEDTAVYYCTRDGDYDYYTMDYWGQGTLVTVSS VL: EIVLTQSPATLSLSPGERATLSCRASKSVSTSAYSYIHWYQQKPGQAPRLLIYLTSNLESGIPARFSGSGSGTDFTLTISSLEPEDFAVYYCQHSRELPYTFGQGTKVEIKR
Marked response: 0.67 nM
